# target-entity: Jun bZIP K273A;Fos bZIP K153A (human;human, UniProt P05412;P01100 252-315;137-200, K273A|K153A)
# Sequence (P05412 252-315 K273A, chain 1 of 2): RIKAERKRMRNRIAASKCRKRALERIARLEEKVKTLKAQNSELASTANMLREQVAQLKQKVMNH
# Sequence (P01100 137-200 K153A, chain 2 of 2): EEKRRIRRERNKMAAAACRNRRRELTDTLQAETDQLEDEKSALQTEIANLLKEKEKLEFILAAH
# measurement-description: ITC
observable: Kd (nM)
# unit: nM | format: bare number

Please give the measured Kd for this binder: TRE duplex 15-mer (dsDNA) DNA 1: CGCGTGACTCACCCC DNA 2: GGGGTGAGTCACGCG
840
